Assay: TLR3 IRF3 reporter activation blockers – cell-based, poly I:C stimulus, luciferase, 10K MLSCN set, primary screen (AID 602277)
Conditions: HEK293-TLR3 RL24 IRF3 luciferase reporter, at 10 µM, stronger effect = higher value
Listed next: entries and their corresponding inhibition.
The answer is to be given in %; state only the numeric part.

Field: example entries. Status: answers known.
Note to self: inhibition recorded for CC1CC(=O)c2cnc(NCC3CCCO3)nc2C1 (stereo unspecified) was -1.06

Note to self: inhibition recorded for CC(C)OC(=O)c1ccc(OC(=O)c2cccnc2)cc1 was -5.2

Note to self: inhibition recorded for CC(=O)c1cc(-c2ccc(F)cc2)n(CCC(=O)Nc2cc(C)[nH]n2)c1C was 25.9

Others:
Note to self: inhibition recorded for O=C(Nc1nnc(N2CCCCCC2)s1)c1cc(-c2ccc(Br)cc2)on1 was 23.2

Note to self: inhibition recorded for CCOC(=O)c1cnc(C(C)(C)C)[nH]c1=O was 17.4

Note to self: inhibition recorded for O=C1C(Cl)=C(N2CCCCC2)C(=O)N1c1ccccc1Cl was 24.8

Every entry's value here was drawn from PubChem BioAssay.
